Molecular target: human liver GK (Homo sapiens)
Construct: GST (glutathione S-transferase) (N)
Experiment: GK activation test
Settings: test compound concentration needed to activate 50% of maximum activation ability; 4 mM 14C-labeled glucose, 2 mM ATP, room temperature, 20 minutes
Protocol: The GK activation test for the test compounds was performed by the method of Irwin A. Rose et al. (J. Biol. Chem. 1964 January; 239:12-7) with partial modifications. […] After 20 minutes, AG1-X4 resin (BioRad) suspended in 25 mM Hepes-KOH (pH=7.1) was added and the reaction product, labeled glucose 6-phosphate, was allowed to bind thereto. […] The labeling activity of the eluted labeled glucose 6-phosphate was measured as an index of GK activity. […]
Reported EC50 values for a set of compounds

Solved cases below.
INSERT INTO results (compound, meas_value) VALUES
  ('O=C1CC[C@H](/C=C(\c2ccc(C(F)F)c(Cl)c2)c2ccc(C3CC3)c(=O)[nH]2)N1', '10 to 500 nM'),
  ('Cc1ccc([C@@]2(c3ccc(S(C)(=O)=O)c(Cl)c3)C[C@@H]2C2CCCC2)[nH]c1=O (relative stereo)', '500 to 3000 nM');

Query: Please look up its EC50: `CC1(C)CCc2cc(/C(=C\[C@H]3CCC(=O)N3)c3ccc(Cl)c(=O)[nH]3)ccc2O1`
Result: 500 to 3000 nM

Query: What about `Cc1cc(/C(=C\[C@H]2CCC(=O)N2)c2ccc(Cl)c(=O)[nH]2)ccc1SC1CC1` ?
Result: 500 to 3000 nM

====

Biological target: human liver GK (Homo sapiens, UniProt P35557)
Construct: GST (glutathione S-transferase) (N)
Sequence (P35557 1-466 isoform P35557-2): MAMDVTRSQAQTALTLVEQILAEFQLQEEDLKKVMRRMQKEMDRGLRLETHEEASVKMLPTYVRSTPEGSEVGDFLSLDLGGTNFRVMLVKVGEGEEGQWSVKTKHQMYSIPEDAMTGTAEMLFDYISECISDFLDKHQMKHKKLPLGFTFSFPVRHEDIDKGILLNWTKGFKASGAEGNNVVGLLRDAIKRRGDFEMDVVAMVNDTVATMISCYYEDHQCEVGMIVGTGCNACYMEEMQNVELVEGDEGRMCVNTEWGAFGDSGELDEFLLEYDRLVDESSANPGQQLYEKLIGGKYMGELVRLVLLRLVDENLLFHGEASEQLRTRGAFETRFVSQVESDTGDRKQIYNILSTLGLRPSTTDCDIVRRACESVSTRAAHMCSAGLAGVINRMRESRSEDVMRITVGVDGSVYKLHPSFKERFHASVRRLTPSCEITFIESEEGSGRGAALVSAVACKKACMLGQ
Assay: GK activation test
Details: test compound concentration needed to activate 50% of maximum activation ability; 4 mM 14C-labeled glucose, 2 mM ATP, room temperature, 20 minutes
pEC50: −log10 of the molar value.
# pEC50 per record follows

Worked examples follow.
INSERT INTO assay_data (compound, measured_property, meas_value) VALUES
  ('CC(C)NC(=O)Nc1ccc(/C(=C\[C@H]2CCC(=O)N2)c2ccc(Cl)c(=O)[nH]2)cc1 [Example 4-156]', 'pEC50', '5.00 to 5.52'),
  ('CCN(CC)CCCS(=O)(=O)c1ccc(/C(=C\C2CCCC2)c2ccc(C)c(=O)[nH]2)cc1Cl [Example 1-25]', 'pEC50', '5.52 to 6.30'),
  ('CC(=O)c1ccc(/C(=C/[C@H]2CCC(=O)N2)c2ccc(C(C)(C)C)cc2)[nH]c1=O [Example 4-175]', 'pEC50', '5.52 to 6.30'),
  ('CC(C)(C)c1ccc(/C(=C\Cc2nc(=O)o[nH]2)c2ccc(Cl)c(=O)[nH]2)cc1 [Example 6-23]', 'pEC50', '5.00 to 5.52'),
  ('O=C1CC[C@H](CC(c2ccc(C3CC3)cc2)c2ccc(Cl)c(=O)[nH]2)N1 (single isomer, unassigned) [Example 4-317]', 'pEC50', '5.52 to 6.30'),
  ('Cc1cc(/C(=C\[C@H]2CCC(=O)N2)c2ccc(C3CC3)c(=O)[nH]2)ccc1F [Example 4-113]', 'pEC50', '5.52 to 6.30');

Query: What value of pEC50 has been recorded for this entry: CCc1ccc(/C(=C\[C@H]2CCC(=O)N2)c2ccc(C3CC3)c(=O)[nH]2)cc1 [Example 4-5]
Result: 6.30 to 8.00

Query: Same question for Cc1ccc(/C(=C/[C@H]2CCC(=O)C2)c2ccc(S(C)(=O)=O)c(Cl)c2)[nH]c1=O [Example 1-68] please.
Result: 5.52 to 6.30

Query: Next up: CN(C)S(=O)(=O)Nc1ccc(/C(=C\[C@H]2CCC(=O)N2)c2ccc(C3CC3)c(=O)[nH]2)cc1 [Example 4-139]
Result: 6.30 to 8.00

Query: Same question, COc1ccc(/C(=C\[C@H]2CC[C@H](O)CC2)c2ccc(C3CC3)c(=O)[nH]2)cc1Cl [Example 1-89] this time
Result: 5.52 to 6.30

Query: Same again, this time with CN(C)S(=O)(=O)c1ccc(/C(=C\[C@H]2CCC(=O)N2)c2ccc(C3CC3)c(=O)[nH]2)cc1 [Example 4-292]
Result: 6.30 to 8.00

Query: Same for O=C1CC[C@H](C[C@H](c2ccc(Cl)c(Cl)c2)c2ccc(C3CC3)c(=O)[nH]2)N1 [Example 4-207]
Result: 6.30 to 8.00

Query: Thanks! And O=c1[nH]c(C(CC2CCCC2)c2ccc(S(=O)(=O)C3CC3)cc2)ccc1Cl (stereo not drawn) [Example 2-25] ?
Result: 5.52 to 6.30

Query: What do we get for Cc1ccc(/C(=C\[C@H]2CCC(=O)N2)c2ccc(Cl)c(=O)[nH]2)cc1 [Example 4-256] ?
Result: 5.52 to 6.30

Query: Can you handle CSc1ccc(C(CC2CCCCC2)c2ccc(C)c(=O)[nH]2)cc1 (stereo not drawn) [Example 2-16] next?
Result: 5.52 to 6.30

====

Biological target: human liver GK (Homo sapiens)
Construct: GST (glutathione S-transferase) (N)
Test: GK activation test
Conditions: test compound concentration needed to activate 50% of maximum activation ability; 4 mM 14C-labeled glucose, 2 mM ATP, room temperature, 20 minutes
Method: The GK activation test for the test compounds was performed by the method of Irwin A. Rose et al. (J. Biol. Chem. 1964 January; 239:12-7) with partial modifications. […] After 20 minutes, AG1-X4 resin (BioRad) suspended in 25 mM Hepes-KOH (pH=7.1) was added and the reaction product, labeled glucose 6-phosphate, was allowed to bind thereto. […] The labeling activity of the eluted labeled glucose 6-phosphate was measured as an index of GK activity. […]
measured.property: EC50

Sample answers from the record:
INSERT INTO results (compound, meas_value) VALUES
  ('CCCc1ccc(C(CC2CCCC2)c2ccc(SC)cc2)[nH]c1=O (stereo not shown) [Example 2-8]', '500 to 3000 nM'),
  ('O=C1CC[C@H](CC(c2ccc(C(F)(F)F)c(Cl)c2)c2ccc(C3CC3)c(=O)[nH]2)N1 (single isomer, unassigned) [Example 4-254]', '10 to 500 nM'),
  ('O=C1CC[C@H](/C=C(/c2ccc(Cl)c(=O)[nH]2)c2ccc(C(F)(F)F)cc2F)N1 [Example 4-262]', '500 to 3000 nM'),
  ('O=C1CC[C@H](CC(c2ccc(C(F)F)c(F)c2)c2ccc(C3CC3)c(=O)[nH]2)N1 (single isomer, unassigned) [Example 4-233]', '500 to 3000 nM'),
  ('CC(C)(C)c1ccc(/C(=C\Cc2ccccc2)c2ccc(Cl)c(=O)[nH]2)cc1 [Example 6-28]', '500 to 3000 nM'),
  ('O=C1CC[C@H](/C=C(\c2ccc(S(=O)(=O)C3CC3)cc2)c2ccc(C(F)(F)F)c(=O)[nH]2)C1 [Example 1-63]', '500 to 3000 nM');

Query: Fill in the blank: the reported EC50 of CCc1ccc(/C(=C/C2CCCC2)c2ccc(S(C)(=O)=O)c(Cl)c2)[nH]c1=O [Example 1-21] is ____.
Result: 10 to 500 nM

====

Target: human liver GK (Homo sapiens)
Construct: GST (glutathione S-transferase) (N); made in house; host or cells: E. coli
Assay: GK activation test
Type: biochemical
Settings: test compound concentration needed to activate 50% of maximum activation ability; 4 mM 14C-labeled glucose, 2 mM ATP, room temperature, 20 minutes
measured.property: EC50

Here's what some known entries look like.
INSERT INTO results (compound, meas_value) VALUES
  ('COc1cc(C(C)(C)C)ccc1/C(=C\[C@H]1CCC(=O)N1)c1ccc(Cl)c(=O)[nH]1 [Example 4-148]', '500 to 3000 nM'),
  ('Cc1ccc(/C(=C/C2CCCC2)c2ccc(S(=O)(=O)CCCO)c(Cl)c2)[nH]c1=O [Example 1-23]', '10 to 500 nM'),
  ('CN1C(=O)CC[C@@H]1/C=C(\c1ccc(C(C)(C)C)cc1)c1ccc(Cl)c(=O)[nH]1 [Example 4-146]', '10 to 500 nM');

Query: Need EC50, item CSc1ccc(C(CC2CCCC2)c2ccc(C)c(=O)[nH]2)cc1 (stereo not shown) [Example 2-1]
Result: 500 to 3000 nM
